In this section, each of the molecules is paired with its reported pIC50.
- Tested target: endogenous amyloid-β (Abeta) plaques in the 5XFAD brain lysate (Homo sapiens, UniProt P05067)
- Construct: coexpressed five familial AD (FAD) and additively increase Abeta-42 production
- Sequence (P05067 672-713 limits assumed): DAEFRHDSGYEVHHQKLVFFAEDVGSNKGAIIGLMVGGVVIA
- Assay info: HATCO assay (high-throughput amyloid Thioflavin competitive binding optical assay), thioflavin-T fluorescence readout
- Reported conditions: competition with thioflavin-T for Abeta in 5XFAD brain lysate, 384-well, 4-parameter fit
Remember the convention: pIC50 equals -log10 of concentration in molar.

[[record]]
molecule = "O=C(O)c1cc(/N=N/c2ccc(S(=O)(=O)Nc3ccccn3)cc2)ccc1O"
quantity_measured = "pIC50"
val = 4.17

[[record]]
molecule = "CC(CN1c2ccccc2Sc2ccccc21)N(C)C (centres unmarked)"
quantity_measured = "pIC50"
val = 4.27

[[record]]
molecule = "O=C(N/N=C/c1ccc([N+](=O)[O-])o1)c1cc([N+](=O)[O-])cc([N+](=O)[O-])c1O"
quantity_measured = "pIC50"
val = 4.21


Give recorded pIC50. Nc1ccc(/N=N/c2ccccc2)c(N)n1 4.13

Give recorded pIC50. O=C1C(Cl)=C(Cl)C(=O)C(Cl)=C1Cl [VU0243635, 2,3,5,6-Tetrachloro-[1,4]benzoquinone] 4.04
